Provenance of the data: ChEMBL document CHEMBL1156205

# System: Staphylococcus aureus
# METHOD_SUMMARY: Antibacterial activity against methicillin-resistant Staphylococcus aureus 3 by agar dilution method
# Type: functional
List of MIC values.

GIVEN_SMILES	SYSTEM_TESTED	PARAMETER	VAL
CC[C@H]1OC(=O)[C@H](C)C(=O)[C@H](C)[C@@H](O[C@@H]2O[C@H](C)C[C@H](N(C)C)[C@H]2O)[C@](C)(OC)C[C@@H](C)/C(=N\OC/C=C/c2cccnc2)[C@H](C)[C@@H](O)[C@]1(C)O	Staphylococcus aureus	MIC	0.5 µg/mL
CC[C@H]1OC(=O)[C@H](C)C(=O)[C@H](C)[C@@H](O[C@@H]2O[C@H](C)C[C@H](N(C)C)[C@H]2O)[C@](C)(OC)C[C@@H](C)/C(=N\OC/C=C/c2ccc(OC)c(OC)c2)[C@H](C)[C@@H](O)[C@]1(C)O	Staphylococcus aureus	MIC	1 µg/mL

// next item, MIC requested
Query: Look up MIC of CC[C@H]1OC(=O)[C@H](C)C(=O)[C@H](C)[C@@H](O[C@@H]2O[C@H](C)C[C@H](N(C)C)[C@H]2O)[C@](C)(OC)C[C@@H](C)/C(=N\OC/C=C/c2cccc(C3OCCO3)c2)[C@H](C)[C@@H](O)[C@]1(C)O and report it.
Reply: 1 µg/mL

====

# System: Streptococcus pneumoniae
# METHOD_SUMMARY: Antibacterial activity against Streptococcus pneumoniae ATCC 49619 by agar dilution method
# Assay type: functional
# TEST_PARAMETERS: ATCC49619
PARAMETER: MIC (µg/mL)
Reply with just the number (in µg/mL).

Query: Report value only: MIC, Streptococcus pneumoniae, CC[C@H]1OC(=O)[C@H](C)C(=O)[C@H](C)[C@@H](O[C@@H]2O[C@H](C)C[C@H](N(C)C)[C@H]2O)[C@](C)(OC)C[C@@H](C)/C(=N\OC/C=C/c2cnc3ccccc3c2)[C@H](C)[C@@H](O)[C@]1(C)O
Reply: 0.06

Query: Print Streptococcus pneumoniae MIC for CC[C@H]1OC(=O)[C@H](C)C(=O)[C@H](C)[C@@H](O[C@@H]2O[C@H](C)C[C@H](N(C)C)[C@H]2O)[C@](C)(OC)C[C@@H](C)/C(=N\OC/C=C/c2cccnc2)[C@H](C)[C@@H](O)[C@]1(C)O .
Reply: 0.125

Query: Please report the measured MIC for CC[C@H]1OC(=O)[C@H](C)C(=O)[C@H](C)[C@@H](O[C@@H]2O[C@H](C)C[C@H](N(C)C)[C@H]2O)[C@](C)(OC)C[C@@H](C)/C(=N\OC/C=C/c2cncnc2)[C@H](C)[C@@H](O)[C@]1(C)O tested on Streptococcus pneumoniae.
Reply: 0.25

Query: Enter MIC (test system Streptococcus pneumoniae) for CC[C@H]1OC(=O)[C@H](C)C(=O)[C@H](C)[C@@H](O[C@@H]2O[C@H](C)C[C@H](N(C)C)[C@H]2O)[C@](C)(OC)C[C@@H](C)/C(=N\OC/C=C/c2cncc3ccccc23)[C@H](C)[C@@H](O)[C@]1(C)O
Reply: 0.25

====

# System: Streptococcus pneumoniae
# METHOD_SUMMARY: Antibacterial activity against penicillin-susceptible Streptococcus pneumoniae isolate S1 by agar dilution method
# Format: functional
Reported values of MIC for individual entries
The reply should contain only the number, in mg/L.

Some molecules with recorded MIC:
GIVEN_SMILES	SYSTEM_TESTED	MIC, mg/L
CC[C@H]1OC(=O)[C@H](C)C(=O)[C@H](C)[C@@H](O[C@@H]2O[C@H](C)C[C@H](N(C)C)[C@H]2O)[C@](C)(OC)C[C@@H](C)/C(=N\OC/C=C/c2ccc3c(c2)CCC3=O)[C@H](C)[C@@H](O)[C@]1(C)O	Streptococcus pneumoniae	0.06
CC[C@H]1OC(=O)[C@H](C)C(=O)[C@H](C)[C@@H](O[C@@H]2O[C@H](C)C[C@H](N(C)C)[C@H]2O)[C@](C)(OC)C[C@@H](C)/C(=N\OC/C=C/c2ccc(OC)cc2)[C@H](C)[C@@H](O)[C@]1(C)O	Streptococcus pneumoniae	0.25
CC[C@H]1OC(=O)[C@H](C)C(=O)[C@H](C)[C@@H](O[C@@H]2O[C@H](C)C[C@H](N(C)C)[C@H]2O)[C@](C)(OC)C[C@@H](C)/C(=N\OC/C=C/c2cccs2)[C@H](C)[C@@H](O)[C@]1(C)O	Streptococcus pneumoniae	0.06
CC[C@H]1OC(=O)[C@H](C)C(=O)[C@H](C)[C@@H](O[C@@H]2O[C@H](C)C[C@H](N(C)C)[C@H]2O)[C@](C)(OC)C[C@@H](C)/C(=N\OC/C=C/c2cccc(OC)c2)[C@H](C)[C@@H](O)[C@]1(C)O	Streptococcus pneumoniae	0.25
CC[C@H]1OC(=O)[C@H](C)C(=O)[C@H](C)[C@@H](O[C@@H]2O[C@H](C)C[C@H](N(C)C)[C@H]2O)[C@](C)(OC)C[C@@H](C)/C(=N\OC/C=C/c2ccc3[nH]ccc3c2)[C@H](C)[C@@H](O)[C@]1(C)O	Streptococcus pneumoniae	0.06

Query: Output measured MIC for this item: CC[C@H]1OC(=O)[C@H](C)C(=O)[C@H](C)[C@@H](O[C@@H]2O[C@H](C)C[C@H](N(C)C)[C@H]2O)[C@](C)(OC)C[C@@H](C)/C(=N\OC/C=C/c2cnc3ccccc3c2)[C@H](C)[C@@H](O)[C@]1(C)O
Reply: 0.06
